tested on: Fibroblast; test: Multiplex assay against human fibroblast; type: toxicity, cell-based; details: 48 h, 10 µM, compound concentration 10 uM, replicate 1
property-label: Population Membrane Permeable-Phenotype (%)
Write the value in % as a bare number.

Examples from the recorded data:
>>> recorded_result("CN1CCN(Cc2ccc(Nc3ncc(Cl)c(Nc4ccccc4S(=O)(=O)N(C)C)n3)cc2)CC1")
31
>>> recorded_result("CC(C)NC(=O)N1CC[C@H](NC2=Nc3cc(F)ccc3N(CC(F)F)c3ccc(Cl)cc32)C1")
15
>>> recorded_result("C#Cc1cccc(Nc2ncnc3cc(OCCOC)c(OCCOC)cc23)c1")
23
>>> recorded_result("Cc1cccc(CN2CCN(C(c3ccccc3)c3ccc(Cl)cc3)CC2)c1.Cl.Cl (stereo unspecified)")
16
>>> recorded_result("COc1ccccc1CN[C@H]1C2CCN(CC2)[C@H]1C(c1ccccc1)c1ccccc1")
2

So what's the measured Population Membrane Permeable-Phenotype (%) for this one? `COc1ccc(-c2ccc3ncc4c(c3c2)n(-c2ccc(N3CCNCC3)c(C(F)(F)F)c2)c(=O)n4C)cn1.O=C(O)/C=C\C(=O)O`
50

Then `CC(C)OC(=O)N1CCC(Oc2ncnc3c2cnn3-c2ccc(S(C)(=O)=O)cc2F)CC1` ?
29

Proceed to `COC(=O)C1=C(C)NC(C)=C(C(=O)OCCCN2CCC(c3ccccc3)(c3ccccc3)CC2)[C@H]1c1cccc([N+](=O)[O-])c1`
31

Thanks! And O=C(c1cc2c(cc1F)OC(c1ccc(F)cc1)(c1ccc(Cl)cc1Cl)O2)N1CCOCC1 (stereo unspecified) ?
1

Another compound: `C[C@]12CC[C@@H]3c4ccc(O)cc4CC[C@H]3[C@@H]1CC[C@@H]2O`
11

Now consider `CC(C)Oc1ccccc1C(=O)Nc1ccccc1C(=O)Nc1cccc(S(=O)(=O)C(F)(F)F)c1` and answer again.
14
